Exercise: for every item that follows, state its recorded Ki.
# ASSAYED TARGET: Neutrophil elastase (Homo sapiens, UniProt P08246)
# EXPERIMENT SUMMARY: Potency of inhibition against human leukocyte elastase (HLE) expressed as an apparent binding constant
Give bare numbers, in nM.

# SMILES INPUT, PROPERTY NAME, UNIT, READOUT NUMBER
records = [
    ("COc1cc(C(C)C)c2c(c1)S(=O)(=O)N(COC(=O)c1c(Cl)ccc(OCCN3CCCC3)c1Cl)C2=O", "Ki", "nM", 0.014),
    ("CC(C)c1cccc2c1C(=O)N(COC(=O)c1c(Cl)ccc(OCCN3CCOCC3)c1Cl)S2(=O)=O", "Ki", "nM", 0.008),
]

I would be grateful if you could provide Ki for each of the following entries.
1. COc1cc(C(C)C)c2c(c1)S(=O)(=O)N(COC(=O)c1c(Cl)ccc(S(=O)(=O)N3CCN(C)CC3)c1Cl)C2=O
2. COc1cc(C(C)C)c2c(c1)S(=O)(=O)N(COC(=O)c1c(Cl)ccc(OCCN3CCOCC3)c1Cl)C2=O

Result block:
1. 0.011
2. 0.013

* * *

# EXPERIMENT SUMMARY: Compound was tested for the half life time period in dog jejunum
# Format: ADME, organism-based, Canis lupus familiaris
PROPERTY NAME: half-life (h)
Answers are plain numbers, in h.

Query block: Quick one: half-life for COc1cc(C(C)C)c2c(c1)S(=O)(=O)N(COC(=O)c1c(Cl)ccc(OCCN3CCOCC3)c1Cl)C2=O ?
Result block: 6.57

* * *

# EXPERIMENT SUMMARY: Compound was tested for in vivo bioavailability in monkey
# Format: ADME, organism-based
# CONDITION CONTEXT: simiiformes, read-out: Bioavailabiility
PROPERTY NAME: bioavailability

Query block: Quick one: bioavailability for COc1cc(C(C)C)c2c(c1)S(=O)(=O)N(COC(=O)c1c(Cl)ccc(OCCN3CCOCC3)c1Cl)C2=O ?
Result block: < 1%

* * *

Exercise: for every item that follows, state its recorded pKi.
# ASSAYED TARGET: Neutrophil elastase (Homo sapiens)
# Sequence (P08246 whole entry): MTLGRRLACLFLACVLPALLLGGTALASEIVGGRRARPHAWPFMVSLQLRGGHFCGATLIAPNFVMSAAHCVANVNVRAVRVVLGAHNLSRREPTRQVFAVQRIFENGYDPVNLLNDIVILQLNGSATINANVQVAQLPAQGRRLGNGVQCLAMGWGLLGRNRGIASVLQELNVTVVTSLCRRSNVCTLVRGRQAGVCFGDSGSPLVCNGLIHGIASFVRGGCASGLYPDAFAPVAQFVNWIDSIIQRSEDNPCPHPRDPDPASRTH
# EXPERIMENT SUMMARY: Potency of inhibition against human leukocyte elastase (HLE) expressed as an apparent binding constant
Give bare numbers, as −log10 of the molar value.

Example entries begin here.
# SMILES INPUT, READOUT NUMBER
data = [
    ("COc1cc(C(C)C)c2c(c1)S(=O)(=O)N(COC(=O)c1c(Cl)ccc(OCC(=O)O)c1Cl)C2=O", 10.96),
    ("COc1cc(C(C)C)c2c(c1)S(=O)(=O)N(COC(=O)c1c(Cl)ccc(S(=O)(=O)N(C)CCN(C)C)c1Cl)C2=O", 10.89),
]

Below: the item to evaluate.
Query block: Quick one: pKi for CC(C)c1cc(O)cc2c1C(=O)N(COC(=O)c1c(Cl)ccc(S(=O)(=O)N3CCN(C)CC3)c1Cl)S2(=O)=O ?
Result block: 9.70

FYI, the data here is from ChEMBL document CHEMBL1128723.
